- EXPERIMENTAL_SYSTEM: NleB1 (Escherichia coli)
- Construct: GST-EHEC-NleB1 in pET42a (GST/His tagged), expressed in E. coli BL21 (DE3), nickel purified; some tag cleavage noted
- APPLIED_CONDITIONS: 40 µM; inhibitor
Quick rule: % NleB1 inhibition (µM compound) / 40 of at least 30% means Satisfied, below that means Not satisfied.

Worked examples follow.
1) CCCCCCCCCCCCN1[C@@H](CC(=O)O)c2cc(C(F)(F)F)ccc2S1(=O)=O [KUC101994N] = Satisfied
2) C[C@@H](NS(=O)(=O)c1cc(Cl)ccc1F)[C@H](O)c1ccccc1 [KUC103993N] = Satisfied
3) COc1ccc(C(CCN2CCOCC2)c2c(OC)cc(OC)c3c2OC(=O)CC3c2ccc(OC)cc2)cc1 (centres unmarked) [KUC101459N] = Not satisfied
4) COCOCCn1cc(CN2CCS(=O)(=O)N(Cc3ccc(-c4ccc(F)nc4)cc3)C(CC(C)C)C2=O)nn1 (centres unmarked) [KUC105149N] = Satisfied

Q: Is % NleB1 inhibition (µM compound) / 40 for O=S1(=O)CCOC[C@H](c2ccccc2)N1Cc1ccc(Cl)c(Cl)c1 [KUC102739N] at or above 30%?
A: Not satisfied

Q: Is % NleB1 inhibition (µM compound) / 40 for O=C(c1ccc([N+](=O)[O-])cc1)N1[C@H](COCc2ccccc2)C=CS1(=O)=O [KUC107029N] at or above 30%?
A: Satisfied

Q: Is % NleB1 inhibition (µM compound) / 40 for COc1ccc2cc([C@H](C)C(=O)OCc3cn(CC(=O)c4ccc(O)cc4)nn3)ccc2c1 [KUC104115N] at or above 30%?
A: Satisfied

Q: Is % NleB1 inhibition (µM compound) / 40 for COc1ccc(C2CC(O)(c3ccccc3)Oc3c(C)ccc(C)c32)cc1 (centres unmarked) [KUC101437N] at or above 30%?
A: Not satisfied
